ASSAY TARGET: endogenous TFPI of normal human plasma (human, UniProt P10646 29-304, limits assumed)
METHOD: cell-based or functional assay
REPORTED PROPERTY: thrombin peak (nM) at 12.5 nM, FVIII-neutralised plasma, endogenous TFPI
All answers are understood in nM, so give the number only.

Fab 0088 (Fab fragment of mAb 2021) (Fab, V domains shown, free C-terminal cysteine; KPI-2 specific) VH: EVQLVESGGGLVKPGGSLRLSCAASGFTFSNYAMSWVRQTPEKRLEWVATISRSGSYSYFPDSVQGRFTISRDNAKNSLYLQMNSLRAEDTAVYYCARLGGYDEGDAMDSWGQGTTVTVSS VL: DIVMTQTPLSLSVTPGQPASISCKSSQSLLESDGKTYLNWYLQKPGQSPQLLIYLVSILDSGVPDRFSGSGSGTDFTLKISRVEAEDVGVYYCLQATHFPQTFGGGTKVEIKR ... 98.1

According to the records, this binder mAb 2021 (antibody, human IgG4 S228P, kappa, V domains shown) VH: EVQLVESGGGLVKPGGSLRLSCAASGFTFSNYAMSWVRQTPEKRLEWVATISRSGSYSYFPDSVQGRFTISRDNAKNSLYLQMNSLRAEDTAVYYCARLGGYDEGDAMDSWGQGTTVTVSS VL: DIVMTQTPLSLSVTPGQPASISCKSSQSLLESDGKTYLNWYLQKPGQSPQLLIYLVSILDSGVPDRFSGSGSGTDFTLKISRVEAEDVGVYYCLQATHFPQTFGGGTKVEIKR displays thrombin peak (nM) at 12.5 nM, FVIII-neutralised plasma, endogenous TFPI of 114

So, Fab 0094 (Fab fragment of mAb 2007) (Fab, V domains shown, KPI-2 specific) VH: EVQLVESGGGLVKPGGSLRLSCAASGFTFSNYAMSWVRQAPGKGLEWVSTISRSGSYSYYPDSVKGRFTISRDNAKNSLYLQMNSLRAEDTAVYYCARLGGYDEGDAMDSWGQGTTVTVSS VL: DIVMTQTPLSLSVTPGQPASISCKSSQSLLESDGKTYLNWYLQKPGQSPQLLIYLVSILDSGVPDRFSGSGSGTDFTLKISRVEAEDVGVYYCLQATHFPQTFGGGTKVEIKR ? Its thrombin peak (nM) at 12.5 nM, FVIII-neutralised plasma, endogenous TFPI was 45

The measured thrombin peak (nM) at 12.5 nM, FVIII-neutralised plasma, endogenous TFPI associated with Fab 0095 (Fab fragment of mAb 2014) (Fab, V domains shown, KPI-2 specific) VH: EVQLVESGGGLVKPGGSLRLSCAASGFTFSNYAMSWVRQAPGKGLEWVSTISRSGSYSYYADSVKGRFTISRDNAKNSLYLQMNSLRAEDTAVYYCARLGGYDEGDAMDSWGQGTTVTVSS VL: DIVMTQTPLSLSVTPGQPASISCKSSQSLLESDGKTYLNWLLQRPGESPKLLIYLVSILDSGVPDRFSGSGSGTDFTLKISRVEAEDVGVYYCLQATHFPQTFGGGTKVEIKR reads 81.3
